test system: human SMAD7 mRNA; experiment: Antisense inhibition of human SMAD7 mRNA expression in Hep3B cells by 3-10-3 cEt gapmers, 10,000 nM, electroporation (Example 2); type: cell-based; conditions: Hep3B cells, 10,000 nM antisense oligonucleotide, electroporation, approximately 24 hours, RT-PCR primer probe set RTS5062, relative to untreated control cells
Strand notation (5' to 3'): a small letter for the sugar, then the base; units joined by * are phosphorothioate-linked, units joined directly phosphodiester-linked; [ ] holds rarer units or linkages, { } end groups; capitals alone tell only the bases. k = constrained ethyl (cEt); [5mC] = 5-methylcytosine; d = 2'-deoxy (DNA)
Measured % Inhibition accompanies every entry in the list below.
Field format: number, assumed %, no unit text.

798877 (k[5mC]*kA*kT*dT*dG*dG*dG*d[5mC]*d[5mC]*dG*d[5mC]*dT*dG*k[5mC]*kA*kG; antisense) [compound 798877]: 24

// 799918 (antisense k[5mC]*kA*kT*dT*dT*dA*dT*d[5mC]*dT*d[5mC]*dG*d[5mC]*d[5mC]*kA*kT*kG) [compound 799918] : % Inhibition value = 16

The substance listed as 798926 (antisense k[5mC]*kA*kA*dA*dG*dT*dA*dG*dT*dT*dT*dG*dA*kA*kG*kT) [compound 798926] shows % Inhibition equal to 17

Sure, the documented % Inhibition for 798819 (kT*k[5mC]*k[5mC]*d[5mC]*dA*dG*dT*dA*dT*dG*d[5mC]*d[5mC]*dA*k[5mC]*k[5mC]*kA; antisense) [compound 798819] is 0

Reported % Inhibition of 798906 (kG*k[5mC]*kT*dA*d[5mC]*d[5mC]*dG*dG*d[5mC]*dT*dG*dT*dT*kG*kA*kA; antisense) [compound 798906] : 0

Entry under test: 799937 (antisense kT*k[5mC]*kT*dT*dT*dA*dA*dT*dT*dT*d[5mC]*dA*dG*kA*kG*kT) [compound 799937] . Its % Inhibition was 24

----------
Parameter % inhibition of SMAD7 mRNA expression: see the listing below.
tested on: human SMAD7 mRNA; assay: Antisense inhibition of human SMAD7 mRNA expression in Hep3B cells by 3-10-3 cEt gapmers, 10,000 nM, electroporation (Example 2); assay type: cell-based; conditions: Hep3B cells, electroporation with 10,000 nM antisense oligonucleotide, approximately 24 hours, primer probe set RTS5062, relative to untreated control cells
Strand notation (5' to 3'): a small letter for the sugar, then the base; units joined by * are phosphorothioate-linked, units joined directly phosphodiester-linked; [ ] holds rarer units or linkages, { } end groups; capitals alone tell only the bases. k = constrained ethyl (cEt); [5mC] = 5-methylcytosine; d = 2'-deoxy (DNA)

Take a look at these entries with their results.
799090 (antisense kG*kT*kG*dA*dG*d[5mC]*dA*dA*dT*dA*d[5mC]*dT*dG*kT*kG*kA) [compound 799090]: 49%
798706 (antisense k[5mC]*kG*kG*d[5mC]*dT*dG*dT*d[5mC]*d[5mC]*dG*dT*d[5mC]*dG*k[5mC]*k[5mC]*k[5mC]) [compound 798706]: 1%
799143 (antisense kT*kG*kG*dG*dT*dT*dA*dT*dG*dA*d[5mC]*dG*dG*kA*k[5mC]*k[5mC]) [compound 799143]: 66%
798779 (kA*kT*kT*d[5mC]*dA*d[5mC]*dA*dG*d[5mC]*dA*dA*d[5mC]*dA*k[5mC]*kA*kG; antisense) [compound 798779]: 31%
798964 (antisense k[5mC]*k[5mC]*k[5mC]*dT*dT*d[5mC]*dT*dT*d[5mC]*d[5mC]*dA*dA*dA*kA*kA*kA) [compound 798964]: 32%

Here's the next entry for you.
// % inhibition of SMAD7 mRNA expression lookup, substance = 798951 (antisense kT*k[5mC]*kT*d[5mC]*dA*dA*dA*dG*dA*dG*d[5mC]*dG*dA*kA*kA*k[5mC]) [compound 798951] , result: 37%

----------
test system: human SMAD7 mRNA; test: Antisense inhibition of human SMAD7 mRNA expression in Hep3B cells by 3-10-3 cEt gapmers, 10,000 nM, electroporation (Example 2); type: cell-based; details: Hep3B cells, electroporation with 10,000 nM antisense oligonucleotide, approximately 24 hours, primer probe set RTS5062, relative to untreated control cells
Strand notation (5' to 3'): a small letter for the sugar, then the base; units joined by * are phosphorothioate-linked, units joined directly phosphodiester-linked; [ ] holds rarer units or linkages, { } end groups; capitals alone tell only the bases. k = constrained ethyl (cEt); [5mC] = 5-methylcytosine; d = 2'-deoxy (DNA)
Use 50% as the dividing line for % inhibition of SMAD7 mRNA expression, with the line itself on the label 1 side and lower values as label 0.

798810 (kA*kA*kG*dT*dT*dG*dG*dG*dA*dA*dT*d[5mC]*dT*kG*kA*kA; antisense) [compound 798810]: label 0

# input Kindly determine if % inhibition of SMAD7 mRNA expression recorded for 799124 (antisense k[5mC]*k[5mC]*kG*d[5mC]*dT*dT*dG*d[5mC]*dT*dG*dG*d[5mC]*d[5mC]*kT*kA*kA) [compound 799124] is above or exactly 50%.
# output label 0

# input Could you verify whether the entry 799327 (kG*k[5mC]*kA*d[5mC]*dA*d[5mC]*dT*d[5mC]*dT*d[5mC]*d[5mC]*d[5mC]*dA*kG*kG*kA; antisense) [compound 799327] shows % inhibition of SMAD7 mRNA expression of no less than 50%?
# output label 1

----------
Catalogue of % inhibition of SMAD7 mRNA expression readings, one per entry.
tested on: human SMAD7 mRNA; experiment: Antisense inhibition of human SMAD7 mRNA expression in Hep3B cells by 3-10-3 cEt gapmers, 10,000 nM, electroporation (Example 2); format: cell-based; conditions: Hep3B cells, electroporation, 10,000 nM antisense oligonucleotide, approximately 24 hours, RTS5062, relative to untreated control cells
Strand notation (5' to 3'): a small letter for the sugar, then the base; units joined by * are phosphorothioate-linked, units joined directly phosphodiester-linked; [ ] holds rarer units or linkages, { } end groups; capitals alone tell only the bases. k = constrained ethyl (cEt); [5mC] = 5-methylcytosine; d = 2'-deoxy (DNA)
Please give a number only; it is taken to be in %.

For orientation, consider the following solved cases.
799811 (antisense k[5mC]*kT*kG*d[5mC]*d[5mC]*dA*dA*d[5mC]*dG*dG*d[5mC]*dA*d[5mC]*kA*kG*kT) [compound 799811]: 0
799699 (antisense k[5mC]*kA*kA*dA*dA*d[5mC]*dA*dG*dT*dG*dG*dA*d[5mC]*k[5mC]*kA*kT) [compound 799699]: 57
799575 (k[5mC]*kA*k[5mC]*dA*dT*dT*d[5mC]*dA*dG*dG*dG*dT*dT*kT*kA*kA; antisense) [compound 799575]: 38
799299 (antisense kA*kT*kT*d[5mC]*d[5mC]*dA*dA*dA*dA*dG*dG*d[5mC]*dT*kG*kA*k[5mC]) [compound 799299]: 42
799816 (antisense kT*kG*kA*d[5mC]*dA*dA*dG*dG*dT*d[5mC]*d[5mC]*d[5mC]*d[5mC]*kA*kG*kG) [compound 799816]: 19

Shift focus to the following entry.
Item 799559 (kA*kG*k[5mC]*dT*dT*d[5mC]*dT*dA*dT*dT*d[5mC]*dG*dA*kG*k[5mC]*kT; antisense) [compound 799559] was tested on human SMAD7 mRNA; the reported % inhibition of SMAD7 mRNA expression is 37

----------
test system: human SMAD7 mRNA; assay: Antisense inhibition of human SMAD7 mRNA expression in Hep3B cells by 5-10-5 MOE gapmers, single concentration, electroporation, RT-PCR (Example 1, Study 1 and 2); assay type: cell-based; settings: Study 2, electroporation with 15,000 nM antisense oligonucleotide, 5-10-5 MOE gapmers targeting SEQ ID NO: 1 and 2
Strand notation (5' to 3'): a small letter for the sugar, then the base; units joined by * are phosphorothioate-linked, units joined directly phosphodiester-linked; [ ] holds rarer units or linkages, { } end groups; capitals alone tell only the bases. e = 2'-O-(2-methoxyethyl) (MOE); [5mC] = 5-methylcytosine; d = 2'-deoxy (DNA)
% Inhibition reference
Give your result in % as a bare value.

771374 (antisense eA*eG*e[5mC]*eA*eT*dG*dA*dA*dA*dG*dA*d[5mC]*dA*dA*dA*e[5mC]*e[5mC]*eA*e[5mC]*eA) [compound 771374]: 51
771932 (antisense e[5mC]*eG*eA*eG*eG*dT*dG*d[5mC]*d[5mC]*d[5mC]*d[5mC]*d[5mC]*dA*dT*dG*e[5mC]*e[5mC]*eA*eG*eG) [compound 771932]: 13

Next item in the queue.
771820 (antisense eG*eG*eT*e[5mC]*eA*dA*dA*d[5mC]*dT*dT*dG*dT*dG*dG*dT*eA*eA*eA*eA*eT) [compound 771820] yielded % Inhibition of 29

meta.source: patent US10517889B2
